molecular target: CYP2C9 (Homo sapiens, UniProt P11712); assay: Inhibition of human recombinant CYP2C9 using sulfaphenazole […] at 10 uM by fluorometric assay; assay type: ADME
Sequence (P11712 whole entry): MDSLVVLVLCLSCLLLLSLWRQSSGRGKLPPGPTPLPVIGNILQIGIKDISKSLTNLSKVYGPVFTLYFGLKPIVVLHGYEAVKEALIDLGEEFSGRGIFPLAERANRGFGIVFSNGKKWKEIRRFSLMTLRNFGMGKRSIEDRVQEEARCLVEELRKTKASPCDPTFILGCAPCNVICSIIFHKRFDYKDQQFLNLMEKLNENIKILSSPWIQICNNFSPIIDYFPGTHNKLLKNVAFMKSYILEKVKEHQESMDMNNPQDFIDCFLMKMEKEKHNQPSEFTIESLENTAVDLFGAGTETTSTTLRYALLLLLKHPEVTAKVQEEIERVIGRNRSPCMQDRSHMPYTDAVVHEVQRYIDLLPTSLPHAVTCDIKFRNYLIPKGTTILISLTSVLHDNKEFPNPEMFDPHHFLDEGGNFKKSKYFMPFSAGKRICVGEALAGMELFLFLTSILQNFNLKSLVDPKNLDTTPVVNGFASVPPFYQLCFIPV
Reported inhibition at 10 µM values follow for various compounds
Supply the numeric figure in %, leaving out any unit text.

COMPOUND	UNIT_LABEL	inhibition at 10 µM
CS(=O)(=O)c1nc(Nc2cc(F)c(F)c(F)c2)cc(N2CCNCC2)n1	%	85.2
COc1ncccc1C(=O)NCCNc1cc(Nc2ccc(N3CCOCC3)cc2)nc([S+](C)[O-])n1 (centres undefined)	%	42.9
CS(=O)(=O)c1nc(Nc2ccc(F)c(Cl)c2)cc(NC2CCC(N)CC2)n1 (centres undefined)	%	51.8

Please look at the following compound next.
Record `CS(=O)(=O)c1nc(Nc2ccc(F)c(Cl)c2)cc(N2CCNCC2)n1` . Reported inhibition at 10 µM: 64.8

====

assay: Cmax in ICR mouse at 10 mg/kg, po measured after 1440 mins by HPLC analysis; assay type: ADME, organism-based; design: route oral, dose 10 mg/kg, time 1440 min; conditions: in vivo
Reported Cmax values follow for various compounds
Supply the numeric figure in ng/mL, leaving out any unit text.

COMPOUND	QUANTITY_NAME	UNIT_LABEL	MEASURED_VALUE
CS(=O)(=O)c1nc(Nc2ccc(F)c(Cl)c2)cc(NC2CCC(N)CC2)n1.Cl (configuration not stated)	Cmax	ng/mL	28.3

Please look at the following compound next.
Record `CS(=O)(=O)c1nc(Nc2ccc(F)c(Cl)c2)cc(N2CCNCC2)n1.Cl` . Reported Cmax: 25

====

assay: Half life in ICR mouse at 10 mg/kg, po measured after 1440 mins by HPLC analysis; assay type: ADME, organism-based; settings: in vivo
Reported half-life values follow for various compounds
Supply the numeric figure in h, leaving out any unit text.

COMPOUND	UNIT_LABEL	MEASURED_VALUE
CS(=O)(=O)c1nc(Nc2ccc(F)c(Cl)c2)cc(NC2CCC(N)CC2)n1.Cl (configuration not stated)	h	6.3

Please look at the following compound next.
Record `CS(=O)(=O)c1nc(Nc2ccc(F)c(Cl)c2)cc(N2CCNCC2)n1.Cl` . Reported half-life: 7.8

====

experiment: AUC(infinity) in ICR mouse at 10 mg/kg, iv measured after 1440 mins by HPLC analysis; format: ADME, organism-based; parameters: route intravenous, time 1440 min, dose 10 mg/kg; conditions: in vivo
QUANTITY_NAME: AUC(0-inf)

Record `CS(=O)(=O)c1nc(Nc2ccc(F)c(Cl)c2)cc(N2CCNCC2)n1.Cl` . Reported AUC(0-inf): 2.33 µg·h/mL

====

assay: Volume of distribution at steady state in ICR mouse at 10 mg/kg, iv measured after 1440 mins by HPLC analysis; format: ADME, organism-based; details: in vivo, read-out: Vdss
QUANTITY_NAME: Vd (L/kg)
Supply the numeric figure in L/kg, leaving out any unit text.

Record `CS(=O)(=O)c1nc(Nc2ccc(F)c(Cl)c2)cc(N2CCNCC2)n1.Cl` . Reported Vd: 10.9

====

test system: Hepatitis B virus; assay: Antiviral activity against Human hepatitis B virus in Huh-7 cells assessed as reduction in intracellular viral DNA level incubated for 36 hrs by qPCR analysis; assay type: functional, organism-based; conditions: Huh-7, 36 h
QUANTITY_NAME: pIC50
pIC50 here: minus log base 10 of the concentration, concentration in moles per litre.

Example entries begin here.
MOLECULE	pIC50
CS(=O)(=O)c1nc(Nc2ccc(F)c(Cl)c2)cc(NC2CCNCC2)n1	6.70
CS(=O)(=O)c1nc(Nc2cc(F)c(F)c(F)c2)cc(NC2CCC(N)CC2)n1 (configuration not stated)	6.53
CS(=O)(=O)c1nc(Nc2ccc(F)c(Br)c2)cc(N2CCNCC2)n1	6.26

Record `COc1ncccc1C(=O)NCCNc1cc(Nc2ccc(N3CCOCC3)cc2)nc(S(C)(=O)=O)n1` . Reported pIC50: 6.70

Record `CS(=O)(=O)c1nc(Nc2ccc(F)c(Br)c2)cc(NC2CCNCC2)n1` . Reported pIC50: 6.27

Record `CS(=O)(=O)c1nc(Nc2ccc(F)cc2)cc(Nc2ccc(F)cc2)n1` . Reported pIC50: 5.19

Record COc1ncccc1C(=O)NCCNc1cc(Nc2ccc(F)cc2)nc([S+](C)[O-])n1 (configuration not stated) . Reported pIC50: 6.68

Record `COC(=O)C1=C(C)NC(c2ncc(F)cc2F)=N[C@H]1c1ccc(F)cc1Cl` . Reported pIC50: 6.69

====

molecular target: CYP2C19 (Homo sapiens); assay: Inhibition of human recombinant CYP2C19 using amitriptyline […] at 10 uM by fluorometric assay; assay type: ADME
Sequence (P33261 whole entry): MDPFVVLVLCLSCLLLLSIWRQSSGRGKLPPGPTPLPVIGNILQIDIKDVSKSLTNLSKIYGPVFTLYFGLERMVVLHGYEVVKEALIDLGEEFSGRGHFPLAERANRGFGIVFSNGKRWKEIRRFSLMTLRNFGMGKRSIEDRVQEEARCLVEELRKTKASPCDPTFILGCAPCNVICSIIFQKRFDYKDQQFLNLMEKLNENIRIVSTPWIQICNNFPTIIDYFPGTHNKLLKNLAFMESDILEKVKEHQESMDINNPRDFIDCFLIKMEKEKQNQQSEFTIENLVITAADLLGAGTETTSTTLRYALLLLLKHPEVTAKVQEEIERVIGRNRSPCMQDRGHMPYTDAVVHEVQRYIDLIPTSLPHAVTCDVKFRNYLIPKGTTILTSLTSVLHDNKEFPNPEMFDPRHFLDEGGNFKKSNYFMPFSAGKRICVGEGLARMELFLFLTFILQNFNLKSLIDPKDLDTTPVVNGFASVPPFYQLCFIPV
QUANTITY_NAME: inhibition at 10 µM (%)
Supply the numeric figure in %, leaving out any unit text.

Example entries begin here.
COMPOUND	inhibition at 10 µM (%)
CS(=O)(=O)c1nc(Nc2cc(F)c(F)c(F)c2)cc(N2CCNCC2)n1	93.4
CS(=O)(=O)c1nc(Nc2ccc(F)c(Cl)c2)cc(N2CCNCC2)n1	41.2
COc1ncccc1C(=O)NCCNc1cc(Nc2ccc(N3CCOCC3)cc2)nc([S+](C)[O-])n1 (centres undefined)	40.7

Record CS(=O)(=O)c1nc(Nc2ccc(F)c(Cl)c2)cc(NC2CCC(N)CC2)n1 (centres undefined) . Reported inhibition at 10 µM: 71.4

====

system: Hepatitis B virus; assay: Inhibition of HBV recombinant Cp149 expressed in Escherichia coli BL21 (DE3) assessed as inhibition of capsid assembly at 1 uM incubated for 1 hr by immune blotting analysis relative to control
QUANTITY_NAME: inhibition (%)
Supply the numeric figure in %, leaving out any unit text.

COMPOUND	TGT	inhibition [%]
COc1ncccc1C(=O)NCCNc1cc(Nc2ccc(Br)cc2)nc([S+](C)[O-])n1 (stereo unspecified)	Hepatitis B virus	82
COc1ncccc1C(=O)NCCNc1cc(Nc2ccccc2)nc([S+](C)[O-])n1 (stereo unspecified)	Hepatitis B virus	83
CS(=O)(=O)c1nc(Nc2cc(F)c(F)c(F)c2)cc(N2CCNCC2)n1	Hepatitis B virus	92
COc1ncccc1C(=O)NCCNc1cc(Nc2ccc(F)cc2)nc([S+](C)[O-])n1 (stereo unspecified)	Hepatitis B virus	83
COc1ncccc1C(=O)NCCNc1cc(Nc2ccc(N3CCOCC3)cc2)nc(S(C)(=O)=O)n1	Hepatitis B virus	86
CS(=O)(=O)c1nc(Nc2cc(F)c(F)c(F)c2)cc(NC2CCC(N)CC2)n1 (stereo unspecified)	Hepatitis B virus	96
CS(=O)(=O)c1nc(Nc2ccc(F)c(Br)c2)cc(NC2CCNCC2)n1	Hepatitis B virus	97
CS(=O)(=O)c1nc(Nc2ccc(F)c(Cl)c2)cc(NC2CCC(N)CC2)n1 (stereo unspecified)	Hepatitis B virus	99

Record `CS(=O)(=O)c1nc(Nc2ccc(F)c(Br)c2)cc(N2CCNCC2)n1` . Reported inhibition: 98

Record `CS(=O)(=O)c1nc(Nc2ccc(F)c(Cl)c2)cc(N2CCNCC2)n1` . Reported inhibition: 90

Record COc1cncc(C(=O)NCCNc2cc(Nc3ccc(N4CCOCC4)cc3)nc([S+](C)[O-])n2)c1 (stereo unspecified) . Reported inhibition: 83

====

Reported inhibition values follow for various molecules
test system: Hepatitis B virus; assay: Inhibition of HBV recombinant Cp149 expressed in Escherichia coli BL21 (DE3) assessed as inhibition of capsid assembly at 1 uM incubated for 1 hr by immune blotting analysis relative to control
Supply the numeric figure in %, leaving out any unit text.

Example entries begin here.
MOLECULE	TGT	inhibition / %
COc1ncccc1C(=O)NCCNc1cc(Nc2ccc(Cl)cc2)nc([S+](C)[O-])n1 (stereo not given)	Hepatitis B virus	80
CS(=O)(=O)c1nc(Nc2ccc(F)c(Cl)c2)cc(NC2CCNCC2)n1	Hepatitis B virus	95
CS(=O)(=O)c1nc(Nc2cc(F)c(F)c(F)c2)cc(NC2CCNCC2)n1	Hepatitis B virus	90
CS(=O)(=O)c1nc(Nc2ccc(F)c(Br)c2)cc(NC2CCC(N)CC2)n1 (stereo not given)	Hepatitis B virus	98

Please look at the following molecule next.
Record `CCOC(=O)C1=C(CN2CCOCC2)NC(c2nccs2)=N[C@H]1c1ccc(F)cc1Br` . Reported inhibition: 93

====

assay: Oral bioavailability in ICR mouse at 10 mg/kg measured after 1440 mins by HPLC analysis; type: ADME, organism-based; settings: in vivo
QUANTITY_NAME: bioavailability
Please state the value followed by its unit.

COMPOUND	bioavailability
CS(=O)(=O)c1nc(Nc2ccc(F)c(Cl)c2)cc(N2CCNCC2)n1.Cl	4.6%

Please look at the following compound next.
Record CS(=O)(=O)c1nc(Nc2ccc(F)c(Cl)c2)cc(NC2CCC(N)CC2)n1.Cl (configuration not stated) . Reported bioavailability: 4.8%
